Where do the numbers come from? From PubChem BioAssay (NCI).

System: UO-31 renal
protocol-notes: NCI-60 one-dose screen, 48 h (100 = growth as untreated, 0 = no growth, -100 = all killed)
settings: 10 µM unless noted
Description: Growth inhibition of the UO-31 human tumor cell line is measured as a screen for anti-cancer activity. Cells are grown in 96 well plates and exposed to the test compound for 48 hours. Compounds are tested at a single concentration, which is 10^-5 M for most compounds. The reported endpoint is percent growth (GI% or GIPRCNT), where numbers from 0 - 100% represent growth inhibition, and numbers from -100% - 0 represent cell death. For example, a value of 40 represents 60% growth inhibition. […]
This is part of a sample that, as a whole, favours compounds with a hit. Of some 83,000 tested, about 20% had one in any assay.
Label rule, in plain words: growth of 60% and up is YES, under 60% is NO.

Worked examples, 4 compounds total:
>  <smiles>
C#C[C@]1(O)CC[C@H]2[C@@H]3CC=C4c5sc(C6CCOCC6)nc5CC[C@]4(C)[C@H]3CC[C@@]21C

>  <assigned-class>
YES

$$$$
>  <smiles>
Clc1ccc(-c2csc(Nc3cccc(Nc4csc(-c5ccc(Cl)cc5)n4)c3)n2)cc1

>  <assigned-class>
NO

$$$$
>  <smiles>
COCCOc1ccc(-c2csc(NC(C)=O)n2)cc1NS(=O)(=O)c1cccc2c(N(C)C)cccc12

>  <assigned-class>
YES

$$$$
>  <smiles>
C/C(=N\NC(=S)Nc1ccc(Br)cc1)c1cc2ccccc2oc1=O

>  <assigned-class>
NO

$$$$

Exam item: hey, is growth for this one >= 60%? `CS(=O)(=O)c1ccc(-c2nn(-c3ccccc3)cc2/C=N/NC(=O)c2ccncc2)cc1`
Marked response: YES

----------
System: A549/ATCC NSCLC
protocol-notes: NCI-60 one-dose screen, 48 h (100 = growth as untreated, 0 = no growth, -100 = all killed)
settings: 10 µM unless noted
About 83,000 compounds went through this panel and 20% of them were active in at least one assay; those are over-represented in the sample as a whole.
Measured growth values are reported for all entries that follow.
Express the result in % but write the number alone.

>  <smiles>
COc1ccccc1/C=C/C(=O)c1nnn(-c2ccc(C(=O)O)cc2)c1C

>  <numeric-readout>
90.3

$$$$
>  <smiles>
CCNC(=NCCCN(C)C)N/C(N)=N/c1nc2ccccc2s1

>  <numeric-readout>
89.8

$$$$
>  <smiles>
C=CCn1c(SCC(=O)Nc2cccc(C(=O)/C=C/c3ccccc3)c2)nc2ccccc2c1=O

>  <numeric-readout>
82.6

$$$$
>  <smiles>
COc1ccc(OC)c(NC2=C(Cl)C(=O)C(C)=C(C)C2=O)c1

>  <numeric-readout>
101

$$$$
>  <smiles>
COc1ccc(NC(=O)[C@H](C)NC(=O)OC(C)(C)C)cc1C(=O)Nc1cccc(-c2cc(=O)c3c(OC)c(OC)c(OC)cc3o2)c1

>  <numeric-readout>
7.37

$$$$

Exam item: Quickly give me recorded growth for `CCC(=O)Nc1ccc(-c2nc(-c3cccc(O)c3)c(-c3ccnc(Br)c3)[nH]2)cc1`
Marked response: 83.6

Exam item: Entry `CS(=O)(=O)c1nccc(-c2c(-c3ccc(F)c(OCCc4ccccc4)c3)nc3sccn23)n1` needs its growth filled in; supply it.
Marked response: 99

Exam item: // fetch growth given entry `CCN1C/C(=N\S(=O)(=O)c2ccccc2)N(CC)C1=S`
Marked response: 98.5

Exam item: Write down growth measured for item `COc1cc2c3c(n(CCCNC4CCCC4)c(=O)c2cc1OC)-c1cc2c(cc1C3=O)OCO2`
Marked response: -78.8
